test system: Vaccinia virus; assay: microbe, parasite or virus in culture; type: cell-based; conditions: Orthopoxvirus vaccinia, HEL, read-out: Antiviral activity EC50 Vaccinia virus
pEC50: −log10 of the molar value.
assayMetric: pEC50

O=c1[nH]c(=O)c2ncn(C[C@@H](CF)OCP(=O)(O)O)c2[nH]1 [Compound 8] ... < 3.48
C[C@H](Cn1cnc2c(=O)[nH]c(=O)[nH]c21)OCP(=O)(O)O [Compound 9] ... < 4.00
Nc1nc2c(ncn2COCCO)c(=O)[nH]1 [Acyclovir, acyclovir, reference compound] ... < 3.60

Lab note: next compound to report on.
Would you mind telling me what pEC50 value was observed for CCCCCCCCCCCCCCCCOCCCOP(=O)(O)COCCn1cnc2c(=O)[nH]c(=O)[nH]c21 [Compound 18] ?
< 4.00
